Assay: Pharmacokinetics (plasma and CSF) in infected monkeys after last DB844 dose
Details: monkey, CSF, oral, 6 mg/kg
Assay Endpoint: concentration at 1 h (nM)

CONC(=N)c1ccc(-c2ccc(-c3ccc(C(=N)NOC)cn3)o2)cc1
17

* * *

Assay: Pharmacokinetics (plasma and CSF) in infected monkeys after last DB844 dose
Conditions: monkey, plasma, po, 6 mg/kg, time of peak plasma concentration, after the last (14th) dose of DB844 at 6 mg/kg; analyte = label
Assay Endpoint: Tmax (h)

CONC(=N)c1ccc(-c2ccc(-c3ccc(C(=N)NOC)cn3)o2)cc1
1

* * *

Test: Pharmacokinetics (plasma and CSF) in infected monkeys after last DB844 dose
Conditions: monkey, in vivo, po, 6 mg/kg
Assay Endpoint: half-life (h)

CONC(=N)c1ccc(-c2ccc(-c3ccc(C(=N)NOC)cn3)o2)cc1
5.8

* * *

Assay: Pharmacokinetics (plasma and CSF) in infected monkeys after last DB844 dose
Settings: monkey, in vivo, po, 6 mg/kg, Tmax, plasma, after the 14th oral dose of DB844 at 6 mg/kg, n = 7; median; analyte = label
Assay Endpoint: Tmax (h)

N=C(N)c1ccc(-c2ccc(-c3ccc(C(=N)N)cn3)o2)cc1
4.08

* * *

Assay: Metabolism of DB844 in vervet monkey liver microsomes
Assay type: in vitro ADME
Details: pH 7.4; 10 µM DB844, 0.2 mg/ml male vervet monkey liver microsomes, NADPH, 37°C, pH7.4; read-out: microsomal half-life
Assay Endpoint: half-life at 10 µM

CONC(=N)c1ccc(-c2ccc(-c3ccc(C(=N)NOC)cn3)o2)cc1
~14 min

* * *

Assay: Pharmacokinetics (plasma and CSF) in infected monkeys after last DB844 dose
Conditions: monkey, in vivo, 6 mg/kg
Assay Endpoint: concentration at 28 days

N=C(N)c1ccc(-c2ccc(-c3ccc(C(=N)N)cn3)o2)cc1
35 nM

* * *

Assay: Pharmacokinetics (plasma and CSF) in infected monkeys after last DB844 dose
Settings: monkey, in vivo, po, 6 mg/kg, time of peak plasma concentration, after the last (14th) dose of DB844 at 6 mg/kg; analyte = label
Assay Endpoint: Tmax (h)

N=C(N)c1ccc(-c2ccc(-c3ccc(C(=N)N)cn3)o2)cc1 [DB820]
4

* * *

Assay: Pharmacokinetics (plasma and CSF) in infected monkeys after last DB844 dose
Conditions: monkey, plasma, po, 6 mg/kg, Tmax, plasma, after the 14th oral dose of DB844 at 6 mg/kg, n = 7; median; analyte = label
Assay Endpoint: Tmax (min)

CONC(=N)c1ccc(-c2ccc(-c3ccc(C(=N)NOC)cn3)o2)cc1 [DB844]
57.6

* * *

Test: Pharmacokinetics (plasma and CSF) in infected monkeys after last DB844 dose
Details: monkey, plasma, po, 6 mg/kg
Assay Endpoint: half-life (h)

CONC(=N)c1ccc(-c2ccc(-c3ccc(C(=N)NOC)cn3)o2)cc1
5.76
